Tested on: THRa homodimer (NR concentration 90 nM)
Experiment: PBM binding z-score (relative to random genomic background probes); higher = stronger binding; sequences stand for … in GC…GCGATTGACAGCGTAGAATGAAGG
We use -0.2 as the dividing line for PBM binding z-score: on or above the line is fulfilled, below is not fulfilled.

Some solved entries appear below for comparison.
> print(dat)
                             residues                              target.desc  discrete.label
1  CCTTATGGGTCAAGGTTATAGCACGGGTGGTACG  THRa homodimer (NR concentration 90 nM)       fulfilled
2  TCATATAGGTAAAGGTGAAGGTCGAACGATATGA  THRa homodimer (NR concentration 90 nM)       fulfilled
3  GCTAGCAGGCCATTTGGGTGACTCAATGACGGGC  THRa homodimer (NR concentration 90 nM)   not fulfilled
4  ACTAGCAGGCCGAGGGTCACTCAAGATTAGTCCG  THRa homodimer (NR concentration 90 nM)       fulfilled
5  ACTAGCAGGCCAAGTGTGGGTCACTCAAACAAAG  THRa homodimer (NR concentration 90 nM)   not fulfilled
6  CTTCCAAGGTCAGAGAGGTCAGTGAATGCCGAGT  THRa homodimer (NR concentration 90 nM)       fulfilled
7  TCGAGTAGGTTAGTGGGGGCATTCAGCCAACATA  THRa homodimer (NR concentration 90 nM)       fulfilled
8  CGAACGAGGGCCTGAGTTGATAGCAAATGCCGAT  THRa homodimer (NR concentration 90 nM)   not fulfilled

Hi team, for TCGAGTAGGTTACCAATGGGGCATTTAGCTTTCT , is the recorded PBM binding z-score at or above -0.2?
not fulfilled

Tell me whether PBM binding z-score is at least -0.2 here: CGTACAAGGTCAGAGAGGTCAGTGAATGCCGAGT
fulfilled

Would you say TGAATGAGGATATAAGATCAGGGAACGTTGCAAA shows PBM binding z-score at minimum -0.2?
not fulfilled

# bool: PBM binding z-score of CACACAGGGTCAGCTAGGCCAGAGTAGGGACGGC >= -0.2
fulfilled

Hello, I need to know if CCTAGCAGGCCAATCTGGGTCCCTCAAGGCTTGA has measured PBM binding z-score not below -0.2. Thanks!
not fulfilled

In plain terms: is recorded PBM binding z-score at least -0.2 for CGAACGAGGGCATGAATTGATAGCAAATGCCGAT ?
not fulfilled

Assess whether reported PBM binding z-score for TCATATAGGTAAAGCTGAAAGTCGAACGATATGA sits at -0.2 or higher.
not fulfilled

Textbook exercise: given the entry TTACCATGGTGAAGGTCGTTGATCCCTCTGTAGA , state whether its PBM binding z-score is greater than or equal to -0.2.
not fulfilled

Confirm if PBM binding z-score reported for the sequence AGATCGAGGGCAATGAGTTGATAGCACGGGTGGC is -0.2 or above.
fulfilled

Determine whether measured PBM binding z-score meets or exceeds -0.2 for CGTCAAAGTTCAACGTAACGTAACAGAAAGCAGC
not fulfilled

In plain terms: is recorded PBM binding z-score at least -0.2 for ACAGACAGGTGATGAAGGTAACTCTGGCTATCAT ?
not fulfilled

Say whether TCTTGTAGATCAATAGAGGTTCAGAAAGTGCGCT shows PBM binding z-score of -0.2 or more.
not fulfilled

Record CCTACAGGGCCATCAGGTCATTGATATCAACGTT ; criterion: PBM binding z-score no lower than -0.2. Met?
fulfilled

Entry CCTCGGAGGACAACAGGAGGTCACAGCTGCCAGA : is its PBM binding z-score no less than -0.2?
fulfilled

Check if PBM binding z-score >= -0.2 (inclusive). Item: ACAGACAGGTAAGTGAAGGTAACTCAGCTGGACG
fulfilled

Test whether the sequence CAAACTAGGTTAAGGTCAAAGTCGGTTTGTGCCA records PBM binding z-score of -0.2 or higher.
fulfilled

Please indicate if the recorded PBM binding z-score for CCTAGCAGGCCAGAGTCACTCAAGCATTTCGCTT meets or exceeds -0.2.
not fulfilled

Assess whether reported PBM binding z-score for ATCGAAAGGTCGAAGTGAGTATAGAGAAAGGGAA sits at -0.2 or higher.
not fulfilled
